Measured pKd, listed per entry.
- Measured target: T1, human IL-36R extracellular domain expressed with a C-terminal mouse IgG2a Fc tag (hIL-36R-mFc) (human; mouse, UniProt Q9HB29 20-337)
- T1 construct: not shown: mouse IgG2a Fc, E98-K330
- T1 sequence (looked up): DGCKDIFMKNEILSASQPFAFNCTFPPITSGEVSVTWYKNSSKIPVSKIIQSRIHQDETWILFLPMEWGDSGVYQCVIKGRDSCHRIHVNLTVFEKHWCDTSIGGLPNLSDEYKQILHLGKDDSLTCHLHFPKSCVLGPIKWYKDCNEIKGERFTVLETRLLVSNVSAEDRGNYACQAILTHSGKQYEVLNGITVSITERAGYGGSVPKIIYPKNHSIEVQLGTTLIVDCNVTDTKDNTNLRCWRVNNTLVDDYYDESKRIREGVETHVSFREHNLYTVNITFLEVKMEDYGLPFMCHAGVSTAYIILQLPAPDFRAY
- Procedure details: SPR Biacore 4000, mAb captured on anti-hFc, 37C
The read-out pKd is expressed as -log10 of concentration in moles per litre.

# count of solved cases: 4
- Binder: "H4H14708P2 (antibody, human IgG4 S228P, kappa, V domains shown, Fully human anti-IL-36R antibody) VH: EVQLVESGGDLVQPGRSLRLSCAASGFTFDDYAMHWVRQAPGKGLEWVSVISWNSDVIAYSDSVKGRFTISRDNAKNSLYLQMNSLRTEDTALYYCTKGHKWSFFDYWGQGTLVTVSS VL: EIVLTQSPATLSLSPGERATLSCRASQSISSYLAWYQQKPGQAPRLLIFNVANRATDIPARFSGSGSGTDFTLTISSLEPEDFAVYYCQQRSNWPLTFGGGTKVEIKR"
  pKd: 9.36
- Binder: "H4H14731P (antibody, human IgG4 S228P, kappa, V domains shown, Fully human anti-IL-36R antibody) VH: QLQLQESGPGLVKPSETLSLTCTVSGGSISSSNYYWGWIRQPPGKRLEWIGSIYYSGSTYYNPSLKTRVTISVDTSKNQFSLKLTSVTAADTAVYYCAREEAAALTHFDFWGQGTLVTVSS VL: DIQMTQSPSSLSASVGDRVTITCRASQSISNYLNWYQQKPGKAPKLLIFAASSLQSGVPSRFSGSGSGTDFTLTISSLQPEDFATYYCQHSHSSHPITFGQGTRLEIKR"
  pKd: 8.19
- Binder: "H4H14699P2 (antibody, human IgG4 S228P, kappa, V domains shown, Fully human anti-IL-36R antibody) VH: EVQLVESGGGLVQPGRSLRLSCAASGFTFDDYAIHWVRQAPGKGLEWVSVISWNSDIIGYADSVKGRFTVSRDNAKNSLYLQMNSLRTEDTALYYCAKGYNWNFFDYWGQGTLVTVSS VL: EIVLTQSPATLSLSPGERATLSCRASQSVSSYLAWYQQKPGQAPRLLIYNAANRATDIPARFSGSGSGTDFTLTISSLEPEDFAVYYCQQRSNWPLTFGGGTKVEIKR"
  pKd: 9.12
- Binder: "H4H14706P2 (antibody, human IgG4 S228P, kappa, V domains shown, Fully human anti-IL-36R antibody) VH: EVQLVESGGGLVQPGRSLRLSCTASGFTFDDYAIHWVRQSPGKGLEWVSVISWNSDVIGYADSVKGRFTISRDNAKNSLYLQMNSLRAEDTALYYCAKGYNWNFFDYWGQGTLVTVSS VL: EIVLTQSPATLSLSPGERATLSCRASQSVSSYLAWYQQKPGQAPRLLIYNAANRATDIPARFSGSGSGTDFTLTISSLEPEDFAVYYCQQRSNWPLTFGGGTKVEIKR"
  pKd: 9.35

Exercise: So what's the measured pKd for this one? H4H14757P (antibody, human IgG4 S228P, kappa, V domains shown, Fully human anti-IL-36R antibody) VH: EVQLVESGGGLVQPGRSLRLSCTASGFTFDDYAMHWVRQAPGKGLEWVSGIRWNGGSIGYVDSVKGRFTISRDNAKKSLHLQMNSLKTEDTALYYCAKDIGDILTGFYGEYGMDVWGQGTTVTVSS VL: DIQMTQSPSSLSASEGDRVTITCRASQSISSYLNWYQQKAGKAPNLLIYAASSLQSGVPSRFSGSGSGTEYTLTISSLQPEDFATYYCQQSYIIPYTFGQGTKLEIKR
Solution: 9.61

Exercise: # repeat for H4H14728P (antibody, human IgG4 S228P, kappa, V domains shown, Fully human anti-IL-36R antibody) VH: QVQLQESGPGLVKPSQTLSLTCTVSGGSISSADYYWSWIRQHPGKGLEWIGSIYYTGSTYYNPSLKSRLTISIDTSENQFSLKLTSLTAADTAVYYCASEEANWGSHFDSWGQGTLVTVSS VL: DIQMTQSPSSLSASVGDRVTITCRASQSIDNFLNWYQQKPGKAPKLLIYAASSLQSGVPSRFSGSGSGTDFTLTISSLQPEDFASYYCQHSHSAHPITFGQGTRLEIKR
Solution: 7.54
